procedure.summary: Binding affinity to human His-tagged PAK4 (300 to 591 residues) L301A mutant expressed in Escherichia coli BL21 (DE3)pLysS by surface plasmon resonance assay
metric.name: pKd
Give bare numbers, as −log10 of the molar value.

# smiles.str, metric.name, measured.result
records = [
    ("c1c(Nc2nc(N3CCCCC3)nc3[nH]ncc23)n[nH]c1C1CC1", "pKd", 7.30),
    ("Nc1cccc2ncccc12", "pKd", 3.29),
]

Kindly review the next molecule as well.
# pKd lookup, item "NS(=O)(=O)c1cccc2cnccc12"
3.52

Hello, the source for this data is ChEMBL document CHEMBL5104209, in case you need it.
